# ASSAYED_TARGET: T1, human IL4 (human, UniProt P05112 25-153, biotinylated in the SPR and competition assays (sites not given))
# T1 construct: Peprotech #200-04, mature protein produced in E. coli; also called hIL4; Interleukin 4
# T1 sequence: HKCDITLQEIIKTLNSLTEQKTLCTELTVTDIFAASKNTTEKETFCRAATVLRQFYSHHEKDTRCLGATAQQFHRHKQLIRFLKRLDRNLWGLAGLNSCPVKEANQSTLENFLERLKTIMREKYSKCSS
# PROTOCOL: SPR ProteOn, biotin-IL4 on neutravidin chip, 1:1 fit
# key: entry, value: kon
Give the number; M⁻¹ s⁻¹ is assumed, so skip it.

Qu. Data request, read-out kon, for C06_6E9 (designed binder, ankyrin repeat protein; His-tagged, IMAC-purified) DLGKKLLEAARAGQDDEVRILMANGADVNAIDSDGTTPLHLAAMDGHLEIVEVLLKYGADVNAVDWNGDTPLHLAAVDGHLEIVEVLLKYGADVNAQDNLGDTPLHLAAYYGHLEIVEVLLKHGADVNASDFHGITPLHLAAFSGHLEIVEVLLKYGADVNAQDKFGKTAFDISIDNGNEDLAEILQKLN
Ans. 956000

Qu. Data request, read-out kon, for C06_17A11 (designed binder, ankyrin repeat protein; His-tagged, IMAC-purified) DLGKKLLEAARAGQDDEVRILMANGADVNAIDEWGDTPLHLAAIEGHLEIVEVLLKYGADVNASDAMGMTPLHLAAVYGYLEIVEVLLKNGADVNAMDFSGFTPLHLAAFSGHLEIVEVLLKYGADVNAQDKFGKTAFDISIDNGNEDLAEILQKLN
Ans. 1.03e+06

Qu. Data request, read-out kon, for C06_54C2 (designed binder, ankyrin repeat protein; His-tagged, IMAC-purified) DLGKKLLEAARAGQDDEVRILMANGADVNATDDWGDTLLHLAATDGHLEIVEVLLKNGADVNAIDAMGMTPLHLAAVYGYLEIVEVLLKNGADVNAMDFSGFTPLHLTAFSGHLEIVEVLLKYGADVNAQDKFGKTAFDISIDNGNEDLAEILQKLN
Ans. 403000
